Measured values drawn from ChEMBL document CHEMBL3988442 for this set.

Item-by-item account of Percent Effect
biological target: Shiga toxin 2 (Escherichia coli O157:H7) (UniProt P09385+P09386); test: E. coli 0.157:H7 Shiga Toxin SOP - stx2 screening assay; type: functional; parameters: scale not given: direction of the effect not stated beside the values; conditions: 30 µM

{"molecule": "CCS(=O)(=O)N(C)CC(=O)Nc1ccc(Br)cn1", "Percent Effect / %": -12.9}
{"molecule": "CC(C)N1CCOCC2(CN(Cc3ccco3)CCO2)C1 (configuration not stated)", "Percent Effect / %": 5.04}
{"molecule": "CC(C)(C)C(=O)NCCn1ccc(-c2ccncc2)n1", "Percent Effect / %": -20}
{"molecule": "COc1ccc(C(=O)N2CCC(Nc3ccc(C)nn3)CC2)c(F)c1", "Percent Effect / %": -6.61}
{"molecule": "Cc1nc2ccccc2c(=O)n1CCC(=O)N1CCNC(=O)C1", "Percent Effect / %": 27.4}
{"molecule": "COCCc1noc(CNC2CCCN(c3cccnn3)C2)n1 (configuration not stated)", "Percent Effect / %": -59}
{"molecule": "Cn1cc(-c2csc(N3CCN(C(=O)OC(C)(C)C)CC3)n2)cn1", "Percent Effect / %": -1.73}
{"molecule": "Cc1cnn(CC2CCCN2Cc2nccn2C)c1 (configuration not stated)", "Percent Effect / %": 7.58}
{"molecule": "c1cnn(Cc2nnc3n2CCCN(CC2CCOCC2)C3)c1", "Percent Effect / %": 18.5}
{"molecule": "O=C(c1cccc(=O)[nH]1)N(Cc1ccsc1)CC1CCCO1 (configuration not stated)", "Percent Effect / %": -11.1}
{"molecule": "Cc1cc(C)n(CC2CN(CC(=O)NC3CCCC3)CCO2)n1 (configuration not stated)", "Percent Effect / %": 13.3}
{"molecule": "O=C(c1ccc(C2CCCO2)s1)N1Cc2ccccc2C1 (configuration not stated)", "Percent Effect / %": -61.8}
